Target: GSK3β (Homo sapiens, UniProt P49841)
Sequence (P49841 whole entry): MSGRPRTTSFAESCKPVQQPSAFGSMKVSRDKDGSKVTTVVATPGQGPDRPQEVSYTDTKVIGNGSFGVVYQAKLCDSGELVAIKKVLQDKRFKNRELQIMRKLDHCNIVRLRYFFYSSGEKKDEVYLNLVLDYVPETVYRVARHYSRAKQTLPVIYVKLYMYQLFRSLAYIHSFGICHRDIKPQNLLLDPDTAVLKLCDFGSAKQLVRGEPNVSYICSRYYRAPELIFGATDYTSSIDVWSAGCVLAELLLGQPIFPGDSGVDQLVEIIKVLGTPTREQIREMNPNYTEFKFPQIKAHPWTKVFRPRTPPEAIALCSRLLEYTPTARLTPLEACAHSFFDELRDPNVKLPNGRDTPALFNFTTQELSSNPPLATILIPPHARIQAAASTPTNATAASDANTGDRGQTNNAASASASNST
Assay: biochemical
measurement label: pIC50
pIC50 is a log-scale quantity: -log10 of the concentration expressed in molar.

compound="CC1(C)CC(=O)C2=C(C1)Nc1n[nH]c(C3CC(F)(F)C3)c1[C@@]2(C)c1ccccc1 (stereo in doubt)" observed=6.33
compound="CN(C)c1ccccc1C1C2=C(CC(C)(C)CC2=O)Nc2n[nH]c(C3CC(F)(F)C3)c21 (stereo not shown)" observed=7.24

pIC50 of CC1(C)CC(=O)C2=C(C1)Nc1n[nH]c(C3CC(F)(F)C3)c1C21CCc2c(F)cccc21 (racemic) , assay on GSK3β (Homo sapiens, UniProt P49841), is 7.25

Sample CC[C@@]1(c2cccc(F)c2)C2=C(CC(C)(C)CC2=O)Nc2n[nH]cc21 (stereo in doubt) , system: GSK3β (Homo sapiens, UniProt P49841). Its pIC50 is 6.41

Measured pIC50 (GSK3β (Homo sapiens, UniProt P49841)), entry CC1(C)CC(=O)C2=C(C1)Nc1n[nH]c(C3CC(F)(F)C3)c1[C@@]21CCc2ccccc21 : 7.70

Entry CC(C)c1[nH]nc2c1[C@@](C)(c1ccccc1F)C1=C(CC(C)(C)CC1=O)N2 (stereo in doubt) , GSK3β (Homo sapiens, UniProt P49841) data, pIC50 value: 6.41

###

Biological target: GSK3α (Homo sapiens)
Sequence (P49840 whole entry): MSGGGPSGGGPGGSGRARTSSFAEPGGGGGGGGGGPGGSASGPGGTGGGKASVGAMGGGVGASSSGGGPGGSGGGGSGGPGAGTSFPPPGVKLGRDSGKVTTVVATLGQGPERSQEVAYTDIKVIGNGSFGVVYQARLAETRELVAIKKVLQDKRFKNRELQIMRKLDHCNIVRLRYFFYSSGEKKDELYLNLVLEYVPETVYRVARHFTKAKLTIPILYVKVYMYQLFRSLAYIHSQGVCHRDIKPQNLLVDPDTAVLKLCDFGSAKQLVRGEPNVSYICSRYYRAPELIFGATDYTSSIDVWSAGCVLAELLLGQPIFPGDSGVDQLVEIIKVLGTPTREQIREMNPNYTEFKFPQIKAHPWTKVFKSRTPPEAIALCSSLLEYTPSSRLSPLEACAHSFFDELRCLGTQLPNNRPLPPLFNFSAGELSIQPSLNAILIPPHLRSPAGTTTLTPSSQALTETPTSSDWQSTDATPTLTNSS
Conditions: GSK3α over GSK3β
Item-by-item account of GSK3α fold selectivity
Quick note: give the figure in fold, leave out the unit.

compound="Cc1[nH]nc2c1[C@@](C)(c1cccc(C#N)c1)C1=C(CC(C)(C)CC1=O)N2 [Compound 97]" system="GSK3α (Homo sapiens)" units_symbol=fold observed=5.9
compound="Cc1[nH]nc2c1[C@@](C)(c1ccccc1)C1=C(CC(C)(C)CC1=O)N2 [Compound 124]" system="GSK3α (Homo sapiens)" units_symbol=fold observed=3.7
compound="CC1(C)CC(=O)C2=C(C1)Nc1n[nH]c(Br)c1C2(C)c1ccccc1 (stereo not shown) [Compound 111]" system="GSK3α (Homo sapiens)" units_symbol=fold observed=3.1
compound="Cc1[nH]nc2c1[C@](C)(c1ccccc1)C1=C(CC(C)(C)CC1=O)N2 [Compound 123]" system="GSK3α (Homo sapiens)" units_symbol=fold observed=3.6
compound="Cc1[nH]nc2c1C1(CCCC1)C1=C(CC(C)(C)CC1=O)N2 [Compound 102]" system="GSK3α (Homo sapiens)" units_symbol=fold observed=1.9
compound="CC1(C)CC(=O)C2=C(C1)Nc1n[nH]c(C3CC3)c1C2(C)c1ccccc1F (stereo not shown) [Compound 116]" system="GSK3α (Homo sapiens)" units_symbol=fold observed=1.1
compound="Cc1[nH]nc2c1C(C)(c1ccccc1)C1=C(CC(C)(C)CC1=O)N2 (stereo not shown) [Compound 67]" system="GSK3α (Homo sapiens)" units_symbol=fold observed=5.2
compound="CC1(C)CC(=O)C2=C(C1)Nc1n[nH]c(Cl)c1C2(C)c1ccccc1 (stereo not shown) [Compound 110]" system="GSK3α (Homo sapiens)" units_symbol=fold observed=1.8

Measured GSK3α fold selectivity of CC1(C)CC(=O)C2=C(C1)Nc1n[nH]c(C(F)(F)F)c1C2(C)c1ccccc1F (stereo not shown) [Compound 69] : 1.7

Looking up COC(=O)c1[nH]nc2c1C(C)(c1ccccc1)C1=C(CC(C)(C)CC1=O)N2 (stereo not shown) [Compound 104] , I see its GSK3α fold selectivity listed as 1.5
